# Tested on: OVCAR-8
# assayProtocol: NCI tumour cell line growth inhibition, 48 h
Activity calls are given as the source filed them. Rule as the data show it: active = GI50 up to about 1.1 µM and inactive = higher.
quantityMeasured: GI50

Field: example entries. Status: answers known.
INSERT INTO results (molecule, quantitymeasured, reportedresult) VALUES
  ('Cc1cccc(C(=O)O)c1CC1NCCC2c3ccccc3NC12 (stereo unspecified)', 'GI50', '> 100 µM (inactive)'),
  ('COc1cc(/C=C\c2cccnc2)cc(OC)c1OC', 'GI50', '63.2 µM (inactive)'),
  ('CCOC(=O)C(SCCO)C(C(=O)OCC)n1ccc(=O)[nH]c1=O (stereo unspecified)', 'GI50', '25.1 µM (inactive)'),
  ('O=C1OC(c2ccccc2Br)=N/C1=C/c1ccccc1', 'GI50', '21.6 µM (inactive)'),
  ('CC(C)=CCc1c(O)c(CC=C(C)C)c2oc(-c3ccc(O)cc3O)c(CC=C(C)C)c(=O)c2c1O', 'GI50', '4.88 µM (inactive)');

Required: GI50, one value per molecule below.
1. CC1(C)CC(C#Cc2ccccc2)CC(C)(C)N1O
2. CC(=O)C1C(=O)N(C(C)C)C[C@@H]2CCC(=O)C[C@H]12 (stereo partly specified)
3. C/C(CC(O)(C(F)(F)F)C(F)(F)F)=N/Nc1ccc([N+](=O)[O-])cc1[N+](=O)[O-]
4. CCCC(=O)OC1C(C2COC(C)(C)O2)OC2OC(C)(C)OC21 (stereo unspecified)
5. Cc1ccc2c(c1)CC1(Cc3c(C)cccc3C1=O)C2=O (stereo unspecified)

1: 20.7 µM (inactive); 2: > 100 µM (inactive); 3: 3 µM (inactive); 4: > 100 µM (inactive); 5: > 100 µM (inactive)

Given the entry Cc1nc2ccccc2c(-n2cccn2)c1CCn1cccn1 , what GI50 was observed with OVCAR-8? > 100 µM (inactive)

====

# Test system: DMS-273
# assayProtocol: NCI tumour cell line growth inhibition, 48 h
Calls of active or inactive are those of the source. No stated cut-off is given here; in the data, active = GI50 up to about 1.1 µM and inactive = higher.
Write down one outcome, taken from active, inactive

# fetch the recorded call for CC1=N/C(=C/c2ccc3c(c2)OCO3)C(=O)O1 here inactive

What did this assay record as the result for NC(CCCC(N)P(=O)(O)c1ccccc1)P(=O)(O)c1ccccc1 (configuration not stated) ? inactive

Recorded test call requested for NC(Cc1cc(I)c(O)c(I)c1)C(=O)O (configuration not stated) inactive

What was the test verdict on CCC(CC)NC1=C(NC(C)=O)C(=O)c2ccccc2C1=O ? inactive

Lab log entry: CCCc1[nH]c(SCCCCCCCCSc2nc(-c3ccc(F)cc3)c(CCC)[nH]2)nc1-c1ccc(F)cc1 — outcome as called in the assay? inactive

Hello, I am checking results. What call was entered for O=C(NCCNCCO)N/N=C/c1cccc([N+](=O)[O-])c1 ? inactive

Lab log entry: COC(=O)C1C(=O)O[C@@H](c2ccc(OC)cc2OC)C1C(=O)OC (some centres not stated) — outcome as called in the assay? inactive

# outcome recorded in this test, key = NC(=O)c1[nH]nc(C2OC(CO)C(O)C2O)c1O (configuration not stated) active

Per the records of this test, what outcome belongs to CC(SC1=CC(=O)c2c(O)ccc(O)c2C1=O)C(=O)O (configuration not stated) ? inactive

For COc1ccc2oc(-c3cccnc3)cc(=O)c2c1 , which call appears in the assay record? inactive

Write down the call the test reported for this compound. Item: O=C1C(=O)C2(CC1S(=O)(=O)c1ccccc1)c1ccccc1-c1ccccc12 (configuration not stated) inactive

====

Assign GI50 to each entry below.
# Tested on: TK-10
# assayProtocol: NCI tumour cell line growth inhibition, 48 h
Activity calls are given as the source filed them. Cut-off read from the data, not from the text of the source: active = GI50 up to about 1.1 µM and inactive = higher.

INSERT INTO results (molecule, quantitymeasured, reportedresult) VALUES
  ('O=C(NCCNCCO)N/N=C/c1cccc([N+](=O)[O-])c1', 'GI50', '> 100 µM (inactive)'),
  ('O=C(OCC12CC3CC(CC(C3)C1)C2)c1ccc(NCc2cc(O)ccc2O)cc1', 'GI50', '1.99 µM (inactive)'),
  ('O=C(/C=C/c1ccccc1)Oc1cccc(O)c1', 'GI50', '> 100 µM (inactive)'),
  ('O=C(NS(=O)(=O)OCC(Cl)(Cl)Cl)SCCC(F)(F)C(F)(F)C(F)(F)C(F)(F)C(F)(F)C(F)(F)F', 'GI50', '29.5 µM (inactive)'),
  ('CC(=O)C1C(=O)N(C(C)C)C[C@@H]2CCC(=O)C[C@H]12 (stereo partly specified)', 'GI50', '> 100 µM (inactive)'),
  ('CC1NC(=O)C2=C1C(N)=NC(=O)C2 (stereo unspecified)', 'GI50', '> 100 µM (inactive)'),
  ('COc1ccc(C2c3cc4c(cc3OC(N3CCOCC3)C2C)OCO4)cc1OC (stereo unspecified)', 'GI50', '15.6 µM (inactive)'),
  ('CN(C)c1ccc(/C=C/c2ccnc3ccc4ccccc4c23)cc1', 'GI50', '19.1 µM (inactive)'),
  ('C=C1C2CC[C@@](C)(O)C2[C@H]2OC(=O)C(=C)[C@@H]2C[C@H]1O (stereo partly specified)', 'GI50', '14.9 µM (inactive)'),
  ('O=C1NC(=O)C(CC2CCCCCCCCCCC2=O)C(=O)N1 (stereo unspecified)', 'GI50', '> 100 µM (inactive)');

Then there is this molecule:
# query: GI50 of entry COC1(OC)C(N(C)C)=C(Cl)C(=O)/C1=C/C=O > 100 µM (inactive)

====

# Tested on: A498
# assayProtocol: NCI tumour cell line growth inhibition, 48 h
The source made the active and inactive calls. Rule as the data show it: active = GI50 up to about 1.1 µM and inactive = higher.
Hi! Could you answer with just one of these? true (1) for active, false (0) for inactive

How did this test come out for COC1/C=C(C)/C=C/C(C)/C=C/C(=O)OC(/C(C)=C/C=C(\C)CNC(=O)[C@H](CO)NC=O)C(C)/C=C/C=C/C(OC)CC/C=C(C)/C=C/C1 (stereo not given in full) ? true (1)

====

Would you kindly list GI50 for each of these molecules?
# Tested on: OVCAR-3
# assayProtocol: NCI tumour cell line growth inhibition, 48 h
Calls of active or inactive are those of the source. Cut-off read from the data, not from the text of the source: active = GI50 up to about 1.1 µM and inactive = higher.

These recorded examples may help you get a feel for the data.
INSERT INTO assay_data (molecule, reportedresult) VALUES
  ('NCC(O)CN.Oc1c(Cl)c(Cl)c(Cl)c(Cl)c1Cl', '13.5 µM (inactive)'),
  ('CCc1c(Cc2[nH]c(Cc3[nH]c(C=O)c(C)c3CC)c(CC)c2CC)[nH]c(C=O)c1C', '> 100 µM (inactive)'),
  ('O=c1cnn(C/C=C\CO)c(=O)[nH]1', '> 100 µM (inactive)'),
  ('COc1cc(C=O)cc(/C=N/c2ccc(S(N)(=O)=O)cc2)c1O', '26.1 µM (inactive)');

For every item below, please supply its GI50.
1. O=C(CN1CCN(c2ccccc2)CC1)c1ccc2[nH]c(=O)oc2c1
2. OC1CN=C2c3ccccc3C(O)(c3ccc(Cl)cc3)N2C1 (stereo unspecified)
3. Cc1ccc(/C=N/Nc2nc3ccccc3s2)s1
4. O=C1NC(=S)N/C1=C\c1cccs1

["> 100 µM (inactive)", "> 100 µM (inactive)", "34.9 µM (inactive)", "> 100 µM (inactive)"]

State recorded GI50 for all listed molecules.
1. O=C(Nc1nc2ncn(CCO)c2c(=O)[nH]1)c1ccccc1
2. COc1ccc(NC2Oc3cc4c(cc3C(c3cc(OC)c(O)c(OC)c3)C2C)OCO4)cc1 (stereo unspecified)
3. c1ccc2[nH]c3[nH]c4[nH]c5ccccc5[nH]c4[nH]c3[nH]c2c1

> 100 µM (inactive)
5.21 µM (inactive)
> 100 µM (inactive)

====

Assignment: determine reported GI50 for the given compounds.
# Test system: OVCAR-3
# assayProtocol: NCI tumour cell line growth inhibition, 48 h
Activity calls are given as the source filed them. Rule as the data show it: active = GI50 up to about 1.1 µM and inactive = higher.

INSERT INTO measurements (compound, reportedresult) VALUES
  ('CC1=NN(C(=O)CC(=O)Nc2cccc(C)c2)C(=O)C1/N=N/c1ccc(S(=O)(=O)CCOS(=O)(=O)O)cc1 (stereo not given)', '3.65 µM (inactive)'),
  ('Cc1ccc2oc(=O)c(-c3ccccc3)nc2c1', '46.5 µM (inactive)'),
  ('CCC1C(=O)C[C@H]2[C@@H]3C(O)CC4=CC(=O)CC[C@]4(C)[C@H]3CC[C@]12C (stereo not given in full)', '> 50 µM (inactive)'),
  ('CCOC(=N)n1c(=O)n(C2=NCCN2)c2ccccc21', '> 100 µM (inactive)'),
  ('O=c1cc(NCc2ccncc2)[nH]c(=O)[nH]1', '> 100 µM (inactive)'),
  ('CC(=O)C1(/N=N/c2ccc(S(N)(=O)=O)cc2)CCOC1=O (stereo not given)', '> 100 µM (inactive)'),
  ('C=C1N(C)c2ccc(S(=O)(=O)c3ccc4c(c3)C(C)(C)C(=C)N4C)cc2C1(C)C', '25.4 µM (inactive)'),
  ('O=C(O)C(Cc1cccs1)C(=O)O', '> 100 µM (inactive)'),
  ('COC(=O)CCc1cc(O)c2c(c1)C(C(=O)OC)C(c1ccc(O)c(O)c1)O2 (stereo not given)', '3.71 µM (inactive)');

--- query ---
OVCAR-3 / GI50 / COC1OC(C)C(O)CC1OS(=O)(=O)c1ccc(C)cc1 (stereo not given) : value? > 100 µM (inactive)
